The values you see were collected from paper PMC9482650.

Target: LNX1_2, Q8TBB1
Sequence (Q8TBB1 371-470): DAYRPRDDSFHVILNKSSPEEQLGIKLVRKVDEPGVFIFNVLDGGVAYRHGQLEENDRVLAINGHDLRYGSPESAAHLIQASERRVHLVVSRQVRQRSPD
Test: holdup assay
Set-up: key: below the threshold = too weak to quantify, mostly under pKd 3.1 to 4
Conditions: plain residues with an end cap or a label only (N-terminal biotin on a linker: ado-ado)
parameter: pKd

Here's what some known entries look like.
INSERT INTO assay_data (binder, observed_result) VALUES
  ('THHRKIHTRV [ZNF599, Q96NL3]', 3.5),
  ('SKQFDKNAYV [CLDN10, P78369]', 'below the threshold'),
  ('ATKDKKITTV [EXOC4, Q96A65]', 4.1),
  ('PAALPESTHM [SLC9A3, P48764]', 'below the threshold'),
  ('PSDSVGKDVF [EGLN1, Q9GZT9]', 'below the threshold');

In: Item QLGSPTADLA [SIPA1, Q96FS4] has what recorded pKd?
Out: below the threshold

In: Item DAAHHDESNC [FMNL3, Q8IVF7] has what recorded pKd?
Out: below the threshold

In: Item PGKKPEDSRV [SLCO2B1, O94956] has what recorded pKd?
Out: below the threshold

In: Item RSPVATATSC [DUSP5, Q16690] has what recorded pKd?
Out: below the threshold

In: Item PEKVSNTTVV [IGSF5, Q9NSI5] has what recorded pKd?
Out: 3.73

In: Item FVFESRKEIL [TBPL1, P62380] has what recorded pKd?
Out: below the threshold

In: Item PALKNGQYWV [CSPG4, Q6UVK1] has what recorded pKd?
Out: 4.27
